Subject Of Test: STAT6 (Homo sapiens, UniProt P42226)
Construct: stably transfected HaCaT keratinocyte cell line, which expresses NanoLuc luciferase reporter gene under the transcriptional control of the STAT6 responsive promoter; endogenous in cells; host or cells: HaCaT keratinocyte reporter cell line (stably transfected with a NanoLuc reporter)
Sequence (P42226 whole entry): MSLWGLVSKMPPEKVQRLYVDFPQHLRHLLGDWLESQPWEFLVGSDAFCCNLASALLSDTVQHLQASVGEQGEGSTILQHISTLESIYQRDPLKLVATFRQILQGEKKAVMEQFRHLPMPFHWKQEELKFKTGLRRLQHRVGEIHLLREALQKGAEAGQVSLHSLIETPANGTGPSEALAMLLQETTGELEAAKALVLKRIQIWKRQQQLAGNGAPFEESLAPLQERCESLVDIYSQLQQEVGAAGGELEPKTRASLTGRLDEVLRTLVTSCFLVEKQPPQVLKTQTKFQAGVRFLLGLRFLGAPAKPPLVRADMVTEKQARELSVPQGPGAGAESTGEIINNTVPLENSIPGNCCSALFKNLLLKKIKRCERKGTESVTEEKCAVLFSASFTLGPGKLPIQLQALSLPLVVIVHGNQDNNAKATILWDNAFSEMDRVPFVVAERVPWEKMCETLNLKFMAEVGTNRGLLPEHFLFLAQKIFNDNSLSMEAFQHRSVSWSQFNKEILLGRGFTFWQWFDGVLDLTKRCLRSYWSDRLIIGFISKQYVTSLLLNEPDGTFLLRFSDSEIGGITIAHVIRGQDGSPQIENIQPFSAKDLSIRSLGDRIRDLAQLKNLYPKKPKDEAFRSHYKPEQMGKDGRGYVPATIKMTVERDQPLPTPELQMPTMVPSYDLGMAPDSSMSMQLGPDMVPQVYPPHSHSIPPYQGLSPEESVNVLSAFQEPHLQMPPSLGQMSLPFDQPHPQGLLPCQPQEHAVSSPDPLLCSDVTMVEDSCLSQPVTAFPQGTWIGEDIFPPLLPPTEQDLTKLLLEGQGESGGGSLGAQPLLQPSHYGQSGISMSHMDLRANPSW
Measurement Protocol: STAT6 Reporter Luciferase Assay (IL-13 stimulated HaCaT keratinocyte NanoLuc reporter cells)
Format: cell-based
Protocol Conditions: IL-13 stimulated HaCaT STAT6 NanoLuc reporter cells; read-out: Reporter EC50
Text: Pharmacological measurements of STAT6 transcriptional activity through the IL-13-IL-13 receptor/IL-4 receptor pathway were made with a stably transfected HaCaT keratinocyte cell line, which expresses NanoLuc luciferase reporter gene under the transcriptional control of the STAT6 responsive promoter for IL-13Ra2. The readout of the STAT6 activity utilized Promega Nano-Glo Luciferase assay kit. […]
pEC50: −log10 of the molar value.

Compound: CCn1nc(C(=O)NCc2ccc(NC(=O)N(C)C)cc2)c2c1CCN(c1ncc(C(=O)N(C)C)cn1)[C@H]2C (single isomer, unassigned) [Example 510]
pEC50: 5.82

Compound: COC1CN(C(=O)Nc2ccc(CNC(=O)c3nn(C(C)C)c4c3CN(c3ccc(C(=O)N(C)C)cn3)CC4)cc2)C1 [Example 188]
pEC50: 7.96

Compound: CC(C)n1nc(C(=O)NCc2ccc(NC(=O)N(C)C)cc2)c2c1CCN(c1ccc(C3CCNC3=O)cn1)C2 (racemic) [Example 469]
pEC50: 5.29

Compound: CCC1CN(c2ccc(C(=O)N(C)C)cn2)Cc2c(C(=O)NCc3ccc(NC(=O)N(C)C)cc3)nc(C)n21 (single isomer, unassigned) [Example 336]
pEC50: 7.85

Compound: CC(C)n1nc(C(=O)NCc2ccc(NC(=O)N(C)C)cc2)c2c1CCN(c1ccc(C(=O)N3C[C@@H]4CCO[C@@H]4C3)cn1)C2 [Example 241]
pEC50: 6.48

Compound: CC(C)n1nc(C(=O)NCc2ccc(NC(=O)N3CCN(C)CC3)cc2)c2c1[C@@H](C)CN(c1ccc(C(=O)N(C)C)cn1)C2 [Example 470]
pEC50: 9.00
